Item-by-item account of peptide exchange yield
Biological target: T1, HLA-A*24
T1 construct: Monomers captured on streptavidin plates; also called peptide-receptive MHC molecules; MHC complexes
Assay: UV peptide-exchange ELISA (anti-b2m); yield grade +++ = >50
Recorded Metric: peptide exchange yield

> print(dat)
                                     binder         recorded.metric     result
1  QYPEFSIEL (also called QYPEFSIEL) [TGM4-001]  peptide exchange yield  50 to 75%
2  DIYVTGGHLF (also called DIYVTGGHLF) [KLHDC7B-005]  peptide exchange yield  50 to 75%
3  EAYSYPPATI (also called EAYSYPPATI) [HMCN1-006]  peptide exchange yield  50 to 75%
4  VYEHNHVSL (also called VYEHNHVSL) [BTBD16-006]  peptide exchange yield  50 to 75%
